- tested target: recombinant porcine PREP (Sus scrofa)
- Construct: made in house
- assay overview: PREP activity assay (inhibition of proteolytic activity)
- Format: biochemical
- test parameters: supplementary CSV, read-out: IC50
metric name: IC50 (µM)

1) Cc1nc(CCCc2ccccc2)oc1N(C)CC#N = 12.4
2) c1ccc(CCCc2ncc(-c3ccccc3)o2)cc1 = 91.6
3) Cc1nc(CCCc2ccccc2)oc1N(CC#N)C(=O)C(F)(F)F = 108
4) N#C[C@@H]1CCCN1c1oc(CCCc2ccccc2)nc1-c1ccccc1 = 17.4
5) N#Cc1nc(CCCc2ccccc2)oc1N1CCC[C@H]1C#N = 76.6
6) CC(C)(C)c1nc(CCCc2ccccc2)oc1N1CCC[C@H]1C#N = 415
7) N#C[C@@H]1CCCN1c1oc(CCCc2ccccc2)nc1C(=O)C(F)(F)F = 209
8) Cc1oc(CCCc2ccccc2)nc1C(=O)N1CCC[C@H]1C#N = 12.9
9) c1ccc(CCCc2ncc(-c3cccs3)o2)cc1 = 37.3
10) N#Cc1nc(CCCc2ccccc2)oc1N1CCCC1 = 75.4
11) Cc1oc(CCCc2ccccc2)nc1C(=O)N1CCCC1 = 138

====

- Test system: HEK-293 cells stably expressing GFP-LC3B
- assay overview: Autophagic flux (GFP-LC3B reporter cells)
- test parameters: Homo sapiens, HEK293, 24 h, read-out: Autophagy at 10 uM (%)
Recorded activity at 10 µM by entry
metric name: activity at 10 µM (%)

1) CC(C)Cc1nc(CCCc2ccccc2)oc1N1CCC[C@H]1C#N [compound 8] = 81
2) Cc1nc(CCCc2ccccc2)oc1N(C)CC#N [compound 6] = 96
3) Cc1nc(CCc2c[nH]c3ccccc23)oc1N1CCC[C@H]1C#N [compound 22] = 97
4) Cc1nc(CCOc2ccccc2)oc1N1CCC[C@H]1C#N [compound 17] = 94
5) COc1cc(CCc2nc(C)c(N3CCC[C@H]3C#N)o2)cc(OC)c1 [compound 20] = 89
6) C[C@H](NC(=O)CCCc1ccccc1)C(=O)N1CCC[C@H]1C#N [compound 2, reference compound] = 86
7) Cc1nc(Cc2ccccc2)oc1N1CCC[C@H]1C#N [compound 14] = 97
8) COc1ccc(CCCc2nc(C)c(N3CCC[C@H]3C#N)o2)cc1OC [compound 19] = 93
9) CC(C)c1nc(CCCc2ccccc2)oc1N1CCC[C@H]1C#N [compound 7] = 82
10) N#Cc1nc(CCCc2ccccc2)oc1N1CCC[C@H]1C#N [compound 28] = 97
11) N#Cc1nc(CCCc2ccccc2)oc1N1CCCC1 [compound 27] = 96
12) c1ccc(CCCc2ncc(-c3ccccc3)o2)cc1 [compound 29, 5-Phenyl-2-(3-phenylpropyl)oxazole] = 90
13) N#C[C@@H]1CCCN1c1oc(CCCc2ccccc2)nc1-c1ccccc1 [compound 10] = 104
14) c1ccc(CCCc2ncc(-c3cccs3)o2)cc1 [compound 30, 2-(3-Phenylpropyl)-5-(2-thienyl)oxazole] = 98
15) Cc1nc(CCC(=O)N2CCCCCC2)oc1N1CCC[C@H]1C#N [compound 24] = 84
16) COc1ccc(CCCc2nc(C)c(N3CCC[C@H]3C#N)o2)cc1 [compound 18] = 98
17) Cc1nc(C(=O)CCc2ccccc2)oc1N1CCCC1 [compound 25] = 95
18) Cc1nc(CCCc2cccs2)oc1N1CCC[C@H]1C#N [compound 21] = 72
19) CSCCc1nc(CCCc2ccccc2)oc1N1CCC[C@H]1C#N [compound 11] = 92

====

- tested target: recombinant porcine PREP (Sus scrofa, UniProt P23687)
- Construct: made in house
- Sequence (P23687 whole entry): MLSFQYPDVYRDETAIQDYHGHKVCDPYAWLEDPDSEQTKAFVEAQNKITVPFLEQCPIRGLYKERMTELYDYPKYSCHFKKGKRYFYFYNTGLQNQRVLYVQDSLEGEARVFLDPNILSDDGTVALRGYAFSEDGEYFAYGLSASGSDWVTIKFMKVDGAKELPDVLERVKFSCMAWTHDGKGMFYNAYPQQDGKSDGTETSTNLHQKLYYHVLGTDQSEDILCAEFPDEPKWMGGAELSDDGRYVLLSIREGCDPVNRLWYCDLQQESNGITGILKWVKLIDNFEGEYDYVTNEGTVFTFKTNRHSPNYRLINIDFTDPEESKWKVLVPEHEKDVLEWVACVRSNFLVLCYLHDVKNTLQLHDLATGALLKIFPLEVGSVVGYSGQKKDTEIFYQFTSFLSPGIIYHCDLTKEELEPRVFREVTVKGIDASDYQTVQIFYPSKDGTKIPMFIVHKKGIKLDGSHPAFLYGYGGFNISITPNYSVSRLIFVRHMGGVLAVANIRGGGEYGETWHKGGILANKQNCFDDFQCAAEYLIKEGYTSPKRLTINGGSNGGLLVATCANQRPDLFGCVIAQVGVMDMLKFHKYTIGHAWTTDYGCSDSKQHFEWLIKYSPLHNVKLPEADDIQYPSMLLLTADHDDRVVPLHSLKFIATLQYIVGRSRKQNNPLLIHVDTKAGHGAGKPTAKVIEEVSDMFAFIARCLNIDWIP
- assay overview: PREP activity assay (inhibition of proteolytic activity)
- Format: biochemical
- test parameters: read-out: IC50 value
pIC50: −log10 of the molar value.
metric name: pIC50

1. CC(C)c1nc(CCCc2ccccc2)oc1N1CCC[C@H]1C#N [compound 7] = 6.35 to 6.81
2. CSCCc1nc(CCCc2ccccc2)oc1N1CCC[C@H]1C#N [compound 11] = 6.35 to 6.81

====

- tested target: PREP in mouse brain homogenate (Mus musculus)
- Construct: from tissue; host or cells: mouse brain homogenate
- Sequence (Q9QUR6 whole entry): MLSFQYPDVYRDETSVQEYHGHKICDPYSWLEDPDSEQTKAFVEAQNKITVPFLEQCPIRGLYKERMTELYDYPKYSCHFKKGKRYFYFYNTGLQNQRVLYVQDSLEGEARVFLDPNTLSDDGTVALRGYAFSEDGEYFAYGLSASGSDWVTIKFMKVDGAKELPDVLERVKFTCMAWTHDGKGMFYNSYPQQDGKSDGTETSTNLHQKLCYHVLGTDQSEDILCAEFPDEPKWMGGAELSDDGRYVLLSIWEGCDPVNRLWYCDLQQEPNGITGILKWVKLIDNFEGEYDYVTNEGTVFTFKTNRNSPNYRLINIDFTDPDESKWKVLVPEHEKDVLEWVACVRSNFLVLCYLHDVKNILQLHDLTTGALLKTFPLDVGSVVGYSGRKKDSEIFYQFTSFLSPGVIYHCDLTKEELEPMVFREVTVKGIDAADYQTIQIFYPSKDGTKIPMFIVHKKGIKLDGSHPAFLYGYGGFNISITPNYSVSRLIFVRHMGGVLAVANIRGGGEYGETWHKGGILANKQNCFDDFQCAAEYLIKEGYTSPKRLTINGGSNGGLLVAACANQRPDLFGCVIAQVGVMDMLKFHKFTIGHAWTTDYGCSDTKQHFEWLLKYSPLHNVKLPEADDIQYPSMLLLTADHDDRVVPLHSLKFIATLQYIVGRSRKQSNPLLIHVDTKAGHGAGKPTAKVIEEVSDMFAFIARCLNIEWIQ
- assay overview: PREP inhibition measured with mouse brain homogenate
- Format: biochemical
- test parameters: measured with mouse brain homogenate; read-out: IC50 (nM) (95% CI)
metric name: IC50 (nM)

1) Cc1nc(C(=O)CCc2ccccc2)oc1N1CCCC1 = 90000

====

IC50 values for the molecules below.
- tested target: recombinant porcine PREP (Sus scrofa, UniProt P23687)
- Construct: made in house
- assay overview: PREP activity assay (inhibition of proteolytic activity)
- Type: biochemical
- test parameters: Suc-Gly-Pro-AMC as substrate, 95% CI in brackets, read-out: IC50 (nM) (95% CI)
metric name: IC50

1) Cc1nc(-c2ccccc2)oc1N1CCC[C@H]1C#N [compound 13] = 7940 nM
2) Cc1nc(Cc2ccccc2)oc1N1CCC[C@H]1C#N [compound 14] = 288 nM
3) CC(C)Cc1nc(CCCc2ccccc2)oc1N1CCC[C@H]1C#N [compound 8] = 4580 nM
4) Cc1nc(CCCc2ccccc2)oc1N1CCCC[C@H]1C#N [compound 4] = > 1e+06 nM
5) N#Cc1nc(CCCc2ccccc2)oc1N [compound 26] = > 1e+06 nM
6) Cc1nc(CCc2cn(C(=O)C(F)(F)F)c3ccccc23)oc1N1CCC[C@H]1C#N [compound 23] = 120 nM
7) Cc1nc(CCOc2ccccc2)oc1N1CCC[C@H]1C#N [compound 17] = 1160 nM
8) COc1ccc(CCCc2nc(C)c(N3CCC[C@H]3C#N)o2)cc1 [compound 18] = 65 nM
9) Cc1nc(CCc2c[nH]c3ccccc23)oc1N1CCC[C@H]1C#N [compound 22] = 890 nM
10) Cc1oc(CCCc2ccccc2)nc1C(=O)N1CCC[C@H]1C(N)=O [compound 32] = > 1e+06 nM
11) COc1cc(CCc2nc(C)c(N3CCC[C@H]3C#N)o2)cc(OC)c1 [compound 20] = 1290 nM
12) C[C@H](NC(=O)CCCc1ccccc1)C(=O)N1CCC[C@H]1C#N [compound 2, reference compound] = 3.3 nM
13) Cc1nc(CCC(=O)N2CCCCCC2)oc1N1CCC[C@H]1C#N [compound 24] = 654 nM
14) COc1ccc(CCCc2nc(C)c(N3CCC[C@H]3C#N)o2)cc1OC [compound 19] = 115 nM
15) CC(C)c1nc(CCCc2ccccc2)oc1N1CCC[C@H]1C#N [compound 7] = 156 nM
16) Cc1nc(CCc2ccccc2)oc1N1CCC[C@H]1C#N [compound 15] = 692 nM
17) Cc1nc(CCCc2cccs2)oc1N1CCC[C@H]1C#N [compound 21] = 18 nM
18) CSCCc1nc(CCCc2ccccc2)oc1N1CCC[C@H]1C#N [compound 11] = 445 nM

====

- Test system: HEK-293 cells stably expressing GFP-LC3B
- assay overview: Autophagic flux (GFP-LC3B reporter cells)
- test parameters: Homo sapiens, HEK293, 24 h, read-out: Autophagy at 10 uM (%)
metric name: activity at 10 µM (%)

1) N#Cc1nc(CCCc2ccccc2)oc1N = 96
2) N#C[C@@H]1CCCN1c1oc(CCCc2ccccc2)nc1C(=O)C(F)(F)F = 98
3) Cc1oc(CCCc2ccccc2)nc1C(=O)N1CCC[C@H]1C#N = 97
4) Cc1nc(CCc2cn(C(=O)C(F)(F)F)c3ccccc23)oc1N1CCC[C@H]1C#N = 94
5) Cc1nc(-c2ccccc2)oc1N1CCC[C@H]1C#N = 92
6) Cc1oc(CCCc2ccccc2)nc1C(=O)N1CCC[C@H]1C(N)=O = 98
7) Cc1oc(CCCc2ccccc2)nc1C(=O)N1CCCC1 = 97
8) Cc1nc(CCCc2ccccc2)oc1N(CC#N)C(=O)C(F)(F)F = 77
9) CC(C)(C)c1nc(CCCc2ccccc2)oc1N1CCC[C@H]1C#N = 103
10) Cc1nc(CCCc2ccccc2)oc1N1CCCC[C@H]1C#N = 97
11) Cc1nc(CCCCc2ccccc2)oc1N1CCC[C@H]1C#N = 89
12) Cc1nc(CCc2ccccc2)oc1N1CCC[C@H]1C#N = 88

====

- tested target: recombinant porcine PREP (Sus scrofa, UniProt P23687)
- Construct: made in house
- assay overview: PREP activity assay (inhibition of proteolytic activity)
- Assay type: biochemical
metric name: inhibitory activity (in words)

1. N#Cc1nc(CCCc2ccccc2)oc1N1CCCC1 = very weak inhibitors
2. N#Cc1nc(CCCc2ccccc2)oc1N1CCC[C@H]1C#N = very weak inhibitors
